target: T1, human ApoC3 (huApoC3), native protein purified from human serum (human, UniProt P02656 21-99); experiment: SPR Biacore, huApoC3 on chip, scFv-Fc as analyte
T1 construct: Athens Research and Technology; randomly biotinylated in some assays; also called Apolipoprotein C3
T1 sequence (P02656 21-99): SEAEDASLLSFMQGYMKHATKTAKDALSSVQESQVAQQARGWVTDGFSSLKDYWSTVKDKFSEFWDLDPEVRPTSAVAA
Observed Property: Ka (M⁻¹)
Numbers only; they are read as M⁻¹.

5A11 scFv-Fc (Fc fusion, scFv-Fc format) VH: QVQVQESGPGLVKPSQTLSLTCTVSGVSITTRYYAWSWIRQPPGKGLEWMGVIAYDGSTYYSPSLKSRTSISRDTSKNQFSLQLTSVTPEDTAVYYCARVRLIEAPYEYDYWGQGTQVTVSS VL: QAVVTQEPSLSVSPGGTVTLTCGLSSGSVTTRSYPGWFQQTPGQAPRSLIHSTSSRHSGIPTRFSGSISGNKAALTITGAQPEDEADYYCALDIGSYIVFGGGTHLTVL :: 2.15e+09

Qu. Reported Ka for 5E5 scFv-Fc (Fc fusion, scFv-Fc format) VH: QLQLVESGGGLVQPGGSLRLSCAASGFTFGTYSMRWVRQVPRKALEWVSSISTDGGGTAYRDSVKGRFTISRDNAKNTLYLQMNNLKPEDTAIYYCVIAGYSDWGQGTQVTVSS VL: ATMLTQSPGSLSVVPGESASISCKTSQGLVHSDGKTYFYWFLQKPGQSPQQLIYQVSNRASGVPDRFTGSGSGTDFTLKISGVKAEDAGVYYCAQGTYYPHTFGSGTRLEIK : what is it?
Ans. 5.94e+08

Qu. Reported Ka for 11H1 scFv-Fc (Fc fusion, scFv-Fc format) VH: ELQLVESGGGLVQPGGSLRLSCAASGFTFSSYSMRWVRQAPGKGLEWLSSIKSDGSITSYADSVKGRFTMSRDNAKNTLYLQMNSLKSEDTAMYYCTNQGYINWGQGTQVTVSS VL: ATMLTQSPGSLTIVPGESASISCRASQSLIHSAGKTYFYWLLQKPGQRPQLLIYQVSNRESGVPDRFTGSGSGTDFTLKISGVKAEDAGVYYCAQGTYNPKTFGQGTKLEIK : what is it?
Ans. 5.89e+08
